Tgt: MycN (Homo sapiens)
Construct: endogenous in cells; host or cells: SK-N-BE(2)
Assay Remarks: Degradation of MycN protein in SK-N-BE(2) cells, JESS/Western blot of lysates
Type: cell-based
Study Conditions: SKNBE2, 24 h, SKNBE2 cells, 24 h, 3 μM; read-out: % Degradation of MycN (SKNBE2) 24 h, 3 μM
# Dmax at 3 µM listing for each entry below

| Molecule | Dmax at 3 µM |
| --- | --- |
| CN1CC2(CCCN(c3nccc(Nc4cc(C5CCCC5)[nH]n4)n3)C2)C1 [Compound 107] | 20 to 49% |

Form field: reported Dmax at 3 µM of c1cc(Nc2cc(C3CCCC3)[nH]n2)nc(N2CC3(CN4CCOCC4)CC2C3)n1 [Compound 72]
50 to 79%

Same read-out for CNCC1CCN(c2nccc(Nc3cc(C4CC4)[nH]n3)n2)CC1 [Compound 12] ?
20 to 49%

Same read-out for CNC[C@@H]1CCN(c2nccc(Nc3cc(C4CCCC4)[nH]n3)n2)C1 [Compound 36] ?
80 to 100%

Same read-out for CNCC12CC(C1)N(c1ncc(C)c(Nc3cc(C4CCCC4)[nH]n3)n1)C2 [Compound 182] ?
80 to 100%

* * *

# Dmax at 0.5 µM listing for each entry below
Tgt: MycN (Homo sapiens, UniProt P04198)
Construct: endogenous in cells; host or cells: SK-N-BE(2)
Sequence (P04198 1-464): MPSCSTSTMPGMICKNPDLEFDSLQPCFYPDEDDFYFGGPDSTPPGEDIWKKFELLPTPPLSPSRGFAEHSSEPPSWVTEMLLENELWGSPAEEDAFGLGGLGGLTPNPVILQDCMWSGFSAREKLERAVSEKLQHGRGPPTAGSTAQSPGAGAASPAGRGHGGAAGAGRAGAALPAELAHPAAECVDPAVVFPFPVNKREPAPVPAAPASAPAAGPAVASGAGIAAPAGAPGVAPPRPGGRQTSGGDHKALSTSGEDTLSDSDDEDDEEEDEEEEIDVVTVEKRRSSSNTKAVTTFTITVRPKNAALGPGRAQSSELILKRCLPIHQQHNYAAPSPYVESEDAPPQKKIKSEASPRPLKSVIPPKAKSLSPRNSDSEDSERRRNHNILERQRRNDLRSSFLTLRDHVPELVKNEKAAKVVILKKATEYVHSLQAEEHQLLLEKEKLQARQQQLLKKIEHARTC
Assay Remarks: Degradation of MycN protein in SK-N-BE(2) cells, JESS/Western blot of lysates
Format: cell-based
Study Conditions: SKNBE2, 24 h, SKNBE2 cells, 24 h, 0.5 μM; read-out: % Degradation of MycN (SKNBE2) 24 h, 0.5 μM

Answered examples (3):
| Compound | Measurement |
| --- | --- |
| NC[C@@H]1CN(c2nccc(Nc3cc(C4CC4)[nH]n3)n2)C[C@@H]1F | 20 to 49% |
| c1cc(Nc2cc(C3CC3)[nH]n2)nc(N2CC3(CCNC3)C2)n1 | 20 to 49% |
| CNCC12CCC(C1)N(c1nccc(Nc3cc(C4CC4)[nH]n3)n1)C2 (centres unmarked) | 80 to 100% |

Form field: reported Dmax at 0.5 µM of CN1CC2(C1)CN(c1nccc(Nc3cc(C4CC4)[nH]n3)n1)C2
< 20%

Same read-out for CNC(C)C1CCCN(c2nccc(Nc3cc(C4CC4)[nH]n3)n2)C1 (single isomer, unassigned) ?
20 to 49%

Same read-out for CN(C)[C@H]1CCN(c2nccc(Nc3cc(C4CC4)[nH]n3)n2)C1 ?
20 to 49%

Same read-out for NCC1CN(c2nccc(Nc3cc(C4CCCC4)[nH]n3)n2)CC(F)(F)C1 (centres unmarked) ?
20 to 49%

Same read-out for CS(=O)(=O)CCCNCC12CC(C1)N(c1nccc(Nc3cc(C4CCCC4)[nH]n3)n1)C2 ?
20 to 49%

* * *

Tgt: MycN (Homo sapiens, UniProt P04198)
Construct: endogenous in cells; host or cells: SK-N-BE(2)
Sequence (P04198 1-464): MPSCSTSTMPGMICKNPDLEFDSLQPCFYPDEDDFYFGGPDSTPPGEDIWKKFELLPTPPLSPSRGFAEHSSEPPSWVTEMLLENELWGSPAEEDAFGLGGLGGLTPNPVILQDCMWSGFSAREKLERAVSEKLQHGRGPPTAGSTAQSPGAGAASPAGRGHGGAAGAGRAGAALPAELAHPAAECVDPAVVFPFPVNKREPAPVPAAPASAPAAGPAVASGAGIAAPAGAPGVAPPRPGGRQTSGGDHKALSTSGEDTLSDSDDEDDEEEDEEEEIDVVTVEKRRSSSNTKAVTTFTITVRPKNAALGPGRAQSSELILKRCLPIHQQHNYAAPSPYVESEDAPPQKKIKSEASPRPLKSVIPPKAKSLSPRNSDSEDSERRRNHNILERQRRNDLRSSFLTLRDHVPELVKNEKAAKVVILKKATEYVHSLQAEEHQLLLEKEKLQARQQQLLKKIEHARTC
Assay Remarks: Degradation of MycN protein in SK-N-BE(2) cells, JESS/Western blot of lysates
Assay type: cell-based
Study Conditions: SKNBE2, 24 h, SKNBE2 cells, 24 h, 1 μM; read-out: % Degradation of MycN (SKNBE2) 24 h, 1 μM
# Dmax at 1 µM listing for each entry below

| Molecule | Tgt | Endpoint | Measurement |
| --- | --- | --- | --- |
| CN(C)C[C@H]1CCN(c2nccc(Nc3cc(C4CCCC4)[nH]n3)n2)C1 [Compound 111] | MycN (Homo sapiens, UniProt P04198) | Dmax at 1 µM | < 20% |
| NCC1CN(c2nccc(Nc3cc(C4CCCC4)[nH]n3)n2)CC(F)(F)C1 (stereo not shown) [Compound 115] | MycN (Homo sapiens, UniProt P04198) | Dmax at 1 µM | 50 to 79% |
| CNC[C@H]1CCCN(c2nccc(Nc3cc(C4CC4)[nH]n3)n2)C1 [Compound 16] | MycN (Homo sapiens, UniProt P04198) | Dmax at 1 µM | 80 to 100% |

Could you now look at the following molecule, please?
Form field: reported Dmax at 1 µM of CC(F)(F)CNCC12CC(C1)N(c1nccc(Nc3cc(C4CCCC4)[nH]n3)n1)C2 [Compound 103]
20 to 49%

* * *

Tgt: MycN (Homo sapiens, UniProt P04198)
Construct: endogenous in cells; host or cells: SK-N-BE(2)
Assay Remarks: Degradation of MycN protein in SK-N-BE(2) cells, JESS/Western blot of lysates
Assay type: cell-based
Study Conditions: SKNBE2, 24 h, SKNBE2 cells, 24 h, 0.5 μM; read-out: % Degradation of MycN (SKNBE2) 24 h, 0.5 μM
Endpoint: Dmax at 0.5 µM

Answered examples (5):
| Compound | Dmax at 0.5 µM |
| --- | --- |
| CNC[C@H]1CN(c2nccc(Nc3cc(C4CC4)[nH]n3)n2)C[C@H]1F | < 20% |
| NC[C@@H]1CCCN(c2nccc(Nc3cc(C4CCCC4)[nH]n3)n2)C1 | 20 to 49% |
| CNC[C@H]1CCCN(c2nccc(Nc3cc(C4CC4)[nH]n3)n2)C1 | < 20% |
| c1cc(Nc2cc(C3CCCC3)[nH]n2)nc(N2CC3(CN4CCOCC4)CC2C3)n1 | 20 to 49% |
| CN(C)[C@@H]1CCN(c2nccc(Nc3cc(C4CC4)[nH]n3)n2)C1 | 20 to 49% |

Form field: reported Dmax at 0.5 µM of c1cc(Nc2cc(C3CC3)[nH]n2)nc(N2CC3(CNC3)C2)n1
< 20%

Same read-out for CN1CC(C2CCN(c3nccc(Nc4cc(C5CC5)[nH]n4)n3)C2)C1 (stereo not drawn) ?
20 to 49%

Same read-out for CNCC12CC(C1)N(c1nc3c(c(Nc4cc(C5CCCC5)[nH]n4)n1)CCC3)C2 ?
20 to 49%

Same read-out for CN1CC2(CCN(c3nccc(Nc4cc(C5CC5)[nH]n4)n3)C2)C1 ?
< 20%

Same read-out for c1cc(Nc2cc(C3CC3)[nH]n2)nc(N2CC(C3CNC3)C2)n1 ?
< 20%

Same read-out for CN1CC2(CCN(c3nccc(Nc4cc(C5CCCC5)[nH]n4)n3)CC2)C1 ?
20 to 49%

Same read-out for CC1(NCC23CC(C2)N(c2nccc(Nc4cc(C5CCCC5)[nH]n4)n2)C3)COC1 ?
20 to 49%

Same read-out for CNCC12CC(C1)N(c1ncc(C)c(Nc3cc(C4CCCC4)[nH]n3)n1)C2 ?
20 to 49%

Same read-out for NC[C@H]1CCCN(c2nccc(Nc3cc(C4CCCC4)[nH]n3)n2)C1 ?
< 20%

Same read-out for CNC[C@@H]1CN(c2nccc(Nc3cc(C4CCCC4)[nH]n3)n2)CCO1 ?
< 20%

Same read-out for COC1CN(CC23CC(C2)N(c2nccc(Nc4cc(C5CCCC5)[nH]n4)n2)C3)C1 ?
20 to 49%

Same read-out for NCC1CN(c2nccc(Nc3cc(C4CC4)[nH]n3)n2)CC1(F)F (stereo not drawn) ?
20 to 49%

Same read-out for NCC1CN(c2nccc(Nc3cc(C4CCCC4)[nH]n3)n2)CC1(F)F (stereo not drawn) ?
20 to 49%
